Target: HLA-A*01:01
Experiment: IEDB peptide-MHC binding, purified MHC/competitive/fluorescence; bounds were set here for any values at or beyond the usual limits of such assays
Details: source organism: Monodelphis domestica
pIC50: −log10 of the molar value.
Quantity Measured: pIC50

The value of pIC50 recorded for `YSLEYFQFVKK` when tested on HLA-A*01:01 reads ≤ 4.70

====

Target: HLA-A*30:02
Experiment: IEDB peptide-MHC binding, purified MHC/competitive/radioactivity; filed as Kd, often an IC50 or EC50 that approximates it; bounds were set here for any values at or beyond the usual limits of such assays
Conditions: source organism: Dengue virus 4 Philippines/H241/1956
Items are presented alongside their recorded Kd.
Report only the number, with the unit nM understood.

Item Sequence: TGFDWITDY
Target Desc: HLA-A*30:02
Quantity Measured: Kd
Recorded Value: 1600

Now turn to the next sequence.
sequence `ALLAGFMAY` , Kd observed: 80

====

Items are presented alongside their recorded Kd.
Target: HLA-A*02:19
Test: IEDB peptide-MHC binding, purified MHC/competitive/fluorescence; filed as Kd, often an IC50 or EC50 that approximates it; bounds were set here for any values at or beyond the usual limits of such assays
Conditions: source organism: Entamoeba histolytica HM-1:IMSS

Item Sequence: SMFYGIFPS
Recorded Value: 285 nM

Now turn to the next sequence.
sequence `RSLVCLAPK` , Kd observed: ≥ 20000 nM

====

Items are presented alongside their recorded Kd.
Molecular target: HLA-B*44:03
Experiment: IEDB peptide-MHC binding, purified MHC/competitive/radioactivity; filed as Kd, often an IC50 or EC50 that approximates it; bounds were set here for any values at or beyond the usual limits of such assays
Conditions: source organism: Dengue virus 2 Jamaica/1409/1983
Report only the number, with the unit µM understood.

Item Sequence: LEFFLIVLLI
Recorded Value: 2.48

Now turn to the next sequence.
sequence `AEMEEALRGL` , Kd observed: 0.0316

====

Molecular target: HLA-B*46:01
Assay: IEDB peptide-MHC binding, purified MHC/direct/fluorescence; filed as Kd, often an IC50 or EC50 that approximates it; bounds were set here for any values at or beyond the usual limits of such assays
Settings: source organism: Vibrio vulnificus
pKd: −log10 of the molar value.
Quantity Measured: pKd

The value of pKd recorded for `GLKELGDWV` when tested on HLA-B*46:01 reads ≤ 4.70

====

Target: HLA-C*15:02
Assay: IEDB peptide-MHC binding, purified MHC/direct/fluorescence; filed as Kd, often an IC50 or EC50 that approximates it; bounds were set here for any values at or beyond the usual limits of such assays
Conditions: source organism: Four Corners hantavirus
Quantity Measured: Kd (nM)
Report only the number, with the unit nM understood.

sequence `KARNIISPV` , Kd observed: 88

====

Target: HLA-B*57:01
Experiment: IEDB peptide-MHC binding, purified MHC/competitive/fluorescence; filed as Kd, often an IC50 or EC50 that approximates it; bounds were set here for any values at or beyond the usual limits of such assays
Settings: source organism: Brucella melitensis bv. 1 str. Rev.1
Quantity Measured: Kd

sequence `FSDVSHWWQ` , Kd observed: ≥ 20 µM

====

Target: HLA-A*31:01
Test: IEDB peptide-MHC binding, purified MHC/direct/fluorescence; filed as Kd, often an IC50 or EC50 that approximates it; bounds were set here for any values at or beyond the usual limits of such assays
Settings: source organism: Camelpox virus M-96
Quantity Measured: Kd

sequence `SLFTEQAFY` , Kd observed: ≥ 20 µM
